- target or system: T1, human CTLA-4-Fc (Chimerigen) (human, UniProt P16410 36-161, limits assumed)
- T1 construct: Bought fusion protein; also called hCTLA4-Fc; not shown: It was captured by an anti-human IgG-Fc antibody
- T1 sequence (looked up): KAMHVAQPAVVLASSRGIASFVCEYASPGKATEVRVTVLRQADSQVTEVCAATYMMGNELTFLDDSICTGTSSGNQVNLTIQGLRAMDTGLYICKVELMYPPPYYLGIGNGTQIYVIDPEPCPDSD
- test description: SPR, Biacore T100, 25 C; CTLA4-Fc captured on anti-human IgG-Fc, mutein as analyte; 1:1 Langmuir fit
result type: koff (s⁻¹)
Your answer is read as s⁻¹, so omit the unit and give the number.

Some binders with known koff results, for comparison:
hNGALM7 (designed binder) QDSTSDLIPAPPLSKVPLQQNFQDNQFHGKWYVVGLAGNRILRLDQHPMPMYATIYELKGDKSYNVTSVISSHKKCLYPIATFVPGSQPGEFTLGNIRSYGDKTSYLVRVVSTDYNQYAVVFFKHADTNYESFSITIYGRTKELASELKENFIRFSKSLGLPENHIVFPVPIDQCIDGSAWSHPQFEK
0.000517
hNGALM6 (designed binder) QDSTSDLIPAPPLSKVPLQQNFQDNQFHGKWYVVGLAGNRILRSDQHPMPMYATIYELKGDKSYNVTSVISSHKKCLYSIATFVPGSQPGEFTLGNIKSYGDKESYLVRVVSTDYNQYAVVFFKYASDNDESFSITIYGRTKELASELKENFIRFSKSLGLPENHIVFPVPIDQCIDGSAWSHPQFEK
0.000197
hNGALM3 (designed binder) QDSTSDLIPAPPLSKVPLQQNFQDNQFHGKWYVVGLAGNRILRQDQHPMLMYATIYELKGDKSYNVTSVISSHKKCLYPIATFVPGSQPGEFTLGNIKSYGDKVSYLVRVVSTDYNQYAVVFFKHADTNYESFSITIYGRTKELASELKENFIRFSKSLGLPENHIVFPVPIDQCIDGSAWSHPQFEK
0.000194

Turning now to a further record.
Notebook: hNGALM5 (designed binder) QDSTSDLIPAPPLSKVPLQQNFQDNQFHGKWYVVGLAGNRILRSDQHPMRMYATIYELKGDKSYNVTSVISSHKKCLYTIATFVPGSQPGEFTLGNIKSYGDKWSYLVRVVSTDYNQYAVVFFKHADTNYESFSITIYGRTKELASELKENFIRFSKSLGLPENHIVFPVPIDQCIDGSAWSHPQFEK , koff read as 0.000281
